# Test system: HaCat
# assay: Cytotoxic Profiling of Annotated Libraries Using Quantitative High-Throughput Screening (AID 1296008); also: % is scaled to controls: 0 for no effect and ±100 for the full control effect; nearly all actives have a fitted effect of over 60% in size
# study conditions: Five cell lines viability, CellTiter-Glo ATP luminescence, 48-72 h; hits give low values
# Method: Cell-based phenotypic screening is a commonly used approach to discover biological pathways, novel drug targets, chemical probes and high-quality hit-to-lead molecules. […] A pintool (Kalypsys) was used to transfer 23 nL of compound solution to the 1536-well assay plates. […] Plates were left at room temperature for 10 min before imaging the ATP-coupled luminescence using a ViewLux microplate imager (PerkinElmer, Waltham, MA).
Results filed as inconclusive are left out.
Here the recorded max response is given for each entry.
Response body: numeric value in %, unit text excluded.

Fill blank: measured max response of the compound `OCCC#Cc1nc(-c2ccc(F)cc2)c(-c2ccncc2)n1CCCc1ccccc1` is ____.
4.71

Fill blank: measured max response of the compound `CN1CCN(CCCN2c3ccccc3Sc3ccc(C(F)(F)F)cc32)CC1` is ____.
-7.86

Consider the compound `O=C(Nc1ccc(F)c(C(F)(F)F)c1)Nc1nnc(-c2ccncc2)s1` and give its measured max response.
2.71

# lookup: max response of CC(=O)NC(C)c1ccc(Oc2ccc(OC(C)C)cc2)cc1 (stereo not drawn)
-3.76

Sample O=C1CCCC2=C1C(c1[nH]ncc1Cl)N=C(Nc1nc3ccccc3o1)N2 (stereo not drawn) — what was its max response?
-0.0608

Given the entry `O=C(O)[C@@H](c1ccc(OCc2ccc3ccccc3n2)cc1)C1CCCC1` , report its measured max response.
-16.3

Given the entry `NS(=O)(=O)c1cc2c(cc1Cl)NC=NS2(=O)=O` , report its measured max response.
-11.6

###

# assay: qHTS Screen of the MIPE 4.0 Collection Against Ewings Sarcoma (TC32) (AID 1259256); also: nearly all actives have a fitted effect of over 45% in size
# study conditions: TC32 Ewing sarcoma viability, CellTiter-Glo, 48 h; series mostly up to 45.8 µM
Inconclusive results are not listed. Activity calls are given as the source filed them. Calls come from the whole dose curve; as a rule, active = well fitted inhibition curve with a large enough effect; inconclusive = small, poorly fitted or top-dose-only effect; inactive = no such curve, though single readings can be large or run the other way.
Pick from 1.0 = active, 0.0 = inactive when you respond.

Examples with answers:
Kindly provide the recorded test outcome for the following molecule: CC(=O)NC(C)c1ccc(Oc2ccc(OC(C)C)cc2)cc1 (stereo unspecified)
0.0

Check the results log: what was the call for `COc1ccc2c3n(c(=NC(=O)c4cccnc4)nc2c1OC)CCN3` ?
1.0

Give the logged outcome of this assay for the following molecule: `N[C@@H]1CONC1=O`
0.0

***
Hey, what did the test say about `C[C@H](NC(=O)Cc1cc(F)cc(F)c1)C(=O)N[C@@H]1C(=O)N(C)c2ccccc2-c2ccccc21` ?
1.0

How did this test come out for CC(C)(C)NCC(O)c1ccc(O)c(CO)c1 (stereo unspecified) ?
0.0

Just curious, what result did `Clc1cccc(Cl)c1NC1=NCCN1` get here?
0.0

Could you please tell me the result logged for `NC[C@H](O)c1ccc(O)c(O)c1` in this assay?
0.0

What is the recorded call for this molecule in the test? `CC(C)OC(=O)C1=CN(C(=O)c2ccc(F)c(F)c2)CC(C)(C)c2c1[nH]c1ccccc21`
0.0

What did this assay record as the result for `O=C1[C@H](Cc2ccc(O)cc2)N2C(=O)CCN(C(=O)NCc3ccccc3)[C@H]2CN1Cc1cccc2ccccc12` ?
1.0

Any idea what this test logged for `O=C(C=Cc1ccc(/C=C/C(=O)Nc2ccc(C3=NCCN3)cc2)cc1)Nc1ccc(C2=NCCN2)cc1` ?
0.0

What outcome does the record of this test show for `O=C(c1cc(Cc2n[nH]c(=O)c3ccccc23)ccc1F)N1CCN(C(=O)C2CC2)CC1` ?
1.0

Write down the call the test reported for this molecule. Item: `CS(=O)(=O)c1ccc(C(=O)Nc2ccc(Cl)c(-c3ccccn3)c2)c(Cl)c1`
0.0

Please let me know the test result on file for `NC(=O)c1ccc(-c2nc(-c3ccc4c(c3)OCO4)c(-c3ccccn3)[nH]2)cc1` .
0.0

Answer briefly: the call reported for `CC(=O)Oc1ccccc1C(=O)O` in this assay.
1.0

Just curious, what result did `O=c1[nH]c(-c2ccc(C(F)(F)F)cc2)nc2c1CSCC2` get here?
1.0

What did this assay record as the result for `Cc1n[nH]c(C)c1Cc1sc2c(c1C(=O)N1C[C@H](O)CO1)c(=O)n(C)c(=O)n2CC(C)C` ?
1.0

Recorded test outcome, item `Cc1cccc(-c2[nH]c(C(C)(C)C)nc2-c2ccc3nccnc3c2)n1`
1.0

I would be grateful if you could indicate the recorded call for `OCCn1cc(-c2cnc3nnn(Cc4ccc5ncccc5c4)c3n2)cn1` .
0.0
